Just for reference, ChEMBL document CHEMBL4422622 is where these values come from.

# assay: Oral bioavailability in Han Wistar rat at 2.7 mg/kg by LC-MS/MS analysis
# Format: ADME, organism-based
# conditions: in vivo

| smiles-input | value-units | bioavailability |
| --- | --- | --- |
| CNC(=O)C[C@H]1COc2cc(F)ccc2N1C(=O)c1ccc2c(c1)NC(=O)CO2 | % | 32 |

---

# assayed-target: UniProtKB P08235
# Sequence (P08235 whole entry): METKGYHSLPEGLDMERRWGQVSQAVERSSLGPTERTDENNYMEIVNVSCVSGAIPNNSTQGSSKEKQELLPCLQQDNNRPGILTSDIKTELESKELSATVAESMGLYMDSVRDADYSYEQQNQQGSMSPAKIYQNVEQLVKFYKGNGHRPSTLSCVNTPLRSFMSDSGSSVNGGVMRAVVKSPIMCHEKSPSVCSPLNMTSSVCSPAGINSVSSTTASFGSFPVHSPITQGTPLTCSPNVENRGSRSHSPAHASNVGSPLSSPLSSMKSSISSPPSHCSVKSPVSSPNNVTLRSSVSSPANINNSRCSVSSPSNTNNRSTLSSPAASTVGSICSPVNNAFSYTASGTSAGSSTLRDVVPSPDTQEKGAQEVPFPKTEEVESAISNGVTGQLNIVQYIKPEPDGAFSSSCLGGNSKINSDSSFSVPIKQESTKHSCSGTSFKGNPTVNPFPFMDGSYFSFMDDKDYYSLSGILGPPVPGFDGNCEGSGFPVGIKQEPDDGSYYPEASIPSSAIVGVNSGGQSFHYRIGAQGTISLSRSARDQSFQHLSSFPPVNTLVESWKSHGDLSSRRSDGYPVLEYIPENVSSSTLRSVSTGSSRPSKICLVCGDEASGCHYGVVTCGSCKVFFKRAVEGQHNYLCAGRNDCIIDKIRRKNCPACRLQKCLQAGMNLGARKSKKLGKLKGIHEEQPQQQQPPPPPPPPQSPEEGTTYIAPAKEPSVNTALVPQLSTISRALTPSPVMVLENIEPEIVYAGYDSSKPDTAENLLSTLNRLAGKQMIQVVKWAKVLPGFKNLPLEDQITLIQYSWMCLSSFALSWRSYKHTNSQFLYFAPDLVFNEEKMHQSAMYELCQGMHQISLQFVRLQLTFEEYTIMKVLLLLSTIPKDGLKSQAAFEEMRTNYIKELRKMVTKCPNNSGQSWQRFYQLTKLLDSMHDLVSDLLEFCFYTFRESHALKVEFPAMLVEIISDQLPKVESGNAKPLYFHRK
pIC50: −log10 of the molar value.

| smiles-input | value-operator | pIC50 |
| --- | --- | --- |
| O=C(O)C[C@H]1COc2cc(Cl)ccc2N1C(=O)c1ccc2c(c1)NC(=O)CO2 | < | 5.00 |
| O=C1COc2ccc(C(=O)N3c4ccc(F)cc4OC[C@@H]3CCO)cc2N1 | = | 6.30 |
| Cc1ccc2c(c1)OC[C@](C)(CS(C)(=O)=O)N2C(=O)c1ccc2c(c1)NC(=O)CO2 | = | 7.20 |
| NC(=O)C[C@H]1COCc2cc(F)ccc2N1C(=O)c1ccc2c(c1)NC(=O)CO2 | < | 5.00 |
| NS(=O)(=O)C[C@H]1COc2cc(F)ccc2N1C(=O)c1ccc2c(c1)NCCO2 | = | 6.70 |
| O=C1COc2ccc(C(=O)N3CCOc4ccccc43)cc2N1 | = | 5.50 |
| CS(=O)(=O)C[C@H]1COc2cc(F)ccc2N1C(=O)c1ccc2c(c1)NC(=O)CO2 | = | 8.60 |
| CNC(=O)C[C@H]1COc2cc(F)c(CC(C)C)cc2N1C(=O)c1ccc2c(c1)NC(=O)CO2 | = | 7.70 |
| CC(C)Cc1cc2c(cc1Cl)OC[C@H](CC(N)=O)N2C(=O)c1ccc2c(c1)NC(=O)CO2 | = | 8.60 |
